Tested on: Plasmodium falciparum
method: Primary screen in NF54 nanoGlo assay, in single point, at 2uM, 72h
Assay type: functional, Erythrocyte
run.conditions: timepoint 72 hour
Screen size: about 150,000 compounds; about 540 (0.36%) showed an effect of 50% or more. The entries come from a sample that favours strong results as a whole.
Answer each item with its documented Z score.

molecule	Z score
CCNCc1cccc(Cl)c1Cl	-0.5

For every item below, please supply its Z score.
1. COc1ccc(-c2cn3cc(-c4ccccc4)c4c3n2CCCC4)cc1
2. Cc1cnccc1NCCNCc1ccnc(C(C)C)n1
3. Clc1cccc(CNCCCNc2ccncc2)c1Cl
4. N#CCc1ncc(CCN2C(=O)c3ccccc3C2=O)s1
5. CCN(C(=O)Cn1cc(-c2ccccc2)c2ncn(CC)c(=O)c21)c1ccccc1

Response:
[1.46, 1.39, -8.81, -6.59, -9.77]

For every item below, please supply its Z score.
1. COc1ccc(C(=O)OCC(=O)Nc2cc(C3CC3)nn2-c2ccccc2)c(O)c1
2. CCc1ccc(-c2cnc3ccccc3n2)cc1NC(=O)[C@@H](NS(=O)(=O)c1ccccc1)C(C)C
3. CCOc1cccc(-c2ccc3nc(-c4cccc(OC)c4)c(CCC(=O)NCCc4ccc(OC)c(OC)c4)n3c2)c1
4. COc1cc(CN2C(=O)C(C)C(C)C2=O)ccn1 (stereo not drawn)
5. O=C(CCn1cnc2cc(-c3noc(-c4ccccn4)n3)ccc21)N1CCOCC1
6. CCc1cccc(NC(=O)Cc2nc(-c3cccnc3)n[nH]2)c1

Response:
1. 1.34
2. -0.61
3. -4.22
4. 1.96
5. 1.86
6. 2.1

For every item below, please supply its Z score.
1. Cc1n(CC(=O)c2ccccc2)c2ccccc2[n+]1CC(=O)c1ccccc1
2. CCc1cnc(Cn2nc(-c3ccccc3)cc(C(F)(F)F)c2=O)o1
3. CC(C)CC[C@@]1(C2CC2)NC(=O)N(Cc2ccc(C#N)cn2)C1=O
4. O=C(Cn1ccc([C@H]2CCCNC2)n1)NCc1c(F)cccc1Cl
5. Cc1cc(=O)n(CC(=O)N2CCCC[C@@H]2CCc2ccccc2)nc1C
6. CCCN(C(=O)Nc1cc(Cl)ccc1OC)c1nc(-c2ccc(C3CCCCC3)cc2)cs1

Response:
1: -12.26; 2: 0.55; 3: 2.83; 4: -0.03; 5: 3.31; 6: 2.04

For every item below, please supply its Z score.
1. Cc1cnccc1NCCNCc1cccc(O)c1Cl
2. COCCCN(CCC(=O)NCCc1ccccc1)C(=O)c1cc(C)oc1C
3. Cc1nc(CC(=O)Nc2cc(C3CC3)nn2-c2ccccc2)cs1
4. Cc1cnccc1NCCNCc1nc(C(C)C)cs1

Response:
[-13.09, -0.18, -0.78, -0.58]

For every item below, please supply its Z score.
1. CC(=O)N(CC[C@]1(Cc2ccccc2Cl)CCOC(C)(C)C1)Cc1ccco1
2. CCc1ccc(NC(=O)[C@H](C)N2CCC(NS(=O)(=O)c3cccs3)CC2)cc1
3. COc1ccc(-[n+]2c(-c3ccc(-c4ccccc4)cc3)cn3c2COCC3)cc1
4. COC1(C)CC(N(C)C(=O)[C@@H]2Cc3cncn3C(=O)N2)C1(C)C (stereo partly drawn)
5. CC(NC(=O)NC(C)c1ccc(-c2cccnc2)cc1)c1ccncc1 (stereo not drawn)

Response:
1: 1.22; 2: -7.11; 3: -11.93; 4: 0.52; 5: -1.01

For every item below, please supply its Z score.
1. O=C(Nc1cccc(C(F)(F)F)c1)C1(F)C(F)(F)C(F)(F)C(F)(F)C(F)(F)C1(F)F
2. COCCCN(Cc1ccco1)C[C@H](O)COC(C)(C)C
3. CCc1noc(-c2cccnc2-n2cnc(C(=O)NCc3ccccc3F)c2)n1
4. Cc1nc2ccc(NC(=O)C3C4C=CC(C4)C3C(=O)O)cc2s1 (stereo not drawn)
5. COc1ccc(-c2n[nH]c3c2C(=O)C[C@@H](c2ccccc2)C3)cc1
6. CNc1nc(N2C[C@H]3CC[C@@H](C2)N(C)C3=O)nc2c1CCC2

Response:
[-0.22, -0.27, -3.92, -1.15, 0.48, -0.76]

###

Tested on: Plasmodium falciparum
method: Primary screen in NF54 nanoGlo assay, in single point, at 2uM, 72h
Format: functional, Erythrocyte
run.conditions: timepoint 72 hour
Among all 150,000 compounds or so, about 540 (0.36%) showed an effect of 50% or more. Shown is part of a subset that was picked to be rich in strong results.
Answer each item with its documented Z score.
Give bare numbers.

Solved cases (3 shown):
molecule	Z score
Cn1ccnc1CN(Cc1cccnc1)C1CCCCCC1	-0.44
CC(C)(C)OC(=O)N1CC2CC(=O)CC1C2 (stereo not given)	-0.39
Cc1cccc2ncc(C(=O)N[C@@]34COC[C@@H]3C4)n12	1.31

For every item below, please supply its Z score.
1. CC1(C)OCc2cc(CNc3ccc4oc(=O)[nH]c4c3)ccc2O1
2. CCc1nc2cc(N3CCC(C(=O)Nc4ccc5c(c4)OCO5)CC3)cnc2nc1CC

Response:
-13.84
-0.75

For every item below, please supply its Z score.
1. COc1ccc(-c2cc(C(F)(F)F)nc(-n3nc(-c4cccc(C)c4)c(C)c3-c3cccc(C)c3)n2)cc1
2. Cc1cccc(Cl)c1C(=O)NC(C1CCNCC1)[C@H]1C[C@H](O)C1 (stereo not given in full)

Response:
1.42
1.88

For every item below, please supply its Z score.
1. COc1ccc(CN2CC[C@@H]3C(=O)NCCCCCCN(Cc4ccncc4)[C@@H]3C2)cc1Cn1ccnc1
2. FC(F)(F)c1cccc(-c2cc(-c3csc(-c4ccccc4)n3)on2)c1

Response:
1: -7.78; 2: -0.12

For every item below, please supply its Z score.
1. CC(=O)Nc1c(-c2ccc(F)cc2)c(C)nn1-c1ccc(C(=O)Nc2cccc(F)c2)cc1
2. O=C1CCCN1Cc1ncnn1Cc1ccc2c(c1)OCO2
3. C[C@@H](NCc1ccc2c(c1)COC(C)(C)O2)c1cccc(O)c1
4. COC[C@@H]1[C@H](C(=O)Nc2cc(OC)ccc2OC)CCC(=O)N1C
5. COc1cccc(CN2CC[C@H]3C(=O)NCCCCCCN(Cc4ccncc4)[C@@H]3C2)n1

Response:
1. 0.93
2. 0.57
3. 2.42
4. 1.42
5. 0.65

Prompt: Endpoint output: Z score of CCOc1cc(CNc2ccc3c(c2)OCO3)ccc1OC . Value?
Response: 0.26

###

Answer each item with its documented Z score.
System: Plasmodium falciparum
method: Primary screen in NF54 nanoGlo assay, in single point, at 2uM, 72h
Assay type: functional, Erythrocyte
run.conditions: timepoint 72 hour
Hit rate of the full screen: of about 150,000 compounds, about 540 (0.36%) showed an effect of 50% or more. The full list was thinned out, with strong results kept by preference.
Numbers only.

compound	Z score
O=C(CCc1cccc(Cl)c1)N1CC[C@H](N2CCc3ccccc3C2)C1	0.72
CC12CN(S(=O)(=O)c3ccc4c(c3)OCCO4)C3(C(=O)OCc4ccccc4)CC1CCC23C (stereo not given)	-8.79
O=C(NCCN1CCCCC1)c1n[nH]c2c1CCc1ccccc1-2	-0.47
CCc1nnc(CNC(=O)C(=O)c2ccco2)o1	0.65

For every item below, please supply its Z score.
1. c1ccc(-c2nc3c(c(N4Cc5ccccc5C4)n2)CCNC3)nc1
2. C[C@H]1CCN(c2nc(-c3ccccn3)nc3c2CCC3)C1
3. CCN1CCN(C(=O)c2cnc(-c3ccc(F)cc3)nc2N(C)C)CC1
4. OC[C@H]1CCCN(CCNc2ccc3cc(Cl)ccc3n2)C1
5. O=C(c1csnn1)N1CCc2[nH]nc(-c3ccccc3F)c2C1
6. CC12CN(S(=O)(=O)c3ccccc3)C3(C(=O)O)CC1CCC23C (stereo not given)

Response:
1. 0.52
2. -12.13
3. -0.5
4. -1.36
5. 1.02
6. -0.98

###

Tested on: Plasmodium falciparum
method: Primary screen in NF54 nanoGlo assay, in single point, at 2uM, 72h; a lower Z score goes with more inhibition
Format: functional, Erythrocyte
run.conditions: timepoint 72 hour
Out of some 150,000 compounds screened, about 540 (0.36%) showed an effect of 50% or more. Many of the other results were omitted from the sample, so strong results are more common in it than they were.
Please use satisfied for Z score under 0.2 and not satisfied for everything else, ties included.

The following molecules have reported results that may help.
molecule	discrete.label
CC(C)c1cc(-c2nc(-c3ccccn3)no2)[nH]n1	not satisfied
COc1ccc(CC(=O)Nc2cc(C3CC3)nn2-c2nc(C)cc(=O)[nH]2)cc1	satisfied
Nc1nc(N2CCN(Cc3ccc(F)cc3)CC2)cc([C@H]2C[C@@H](N)C2)n1	satisfied
O=C(CCCc1ccccc1)Nc1cc(C2CC2)nn1-c1nc(-c2ccccc2)cc(=O)[nH]1	satisfied
Cc1nn(-c2nc3ccccc3[nH]2)c(O)c1Cc1ccccc1	satisfied

Prompt: Just wondering, is Z score of CC1=Nc2ccccc2C12CCN(C(=O)Nc1cncc(F)c1)CC2 below 0.2?
Response: satisfied

Prompt: Just wondering, is Z score of CCc1ccc([C@H]2NCCc3[nH]cnc32)nc1 below 0.2?
Response: satisfied

Prompt: Just wondering, is Z score of CC(C)(Oc1ccc(Cl)cc1)C(=O)Nc1c2c(nn1C(C)(C)C)CS(=O)(=O)C2 below 0.2?
Response: not satisfied

Prompt: Just wondering, is Z score of O=C(CN1C(=O)c2ccccc2C1=O)N1CC(=O)N2CCc3ccccc3[C@@H]2C1 below 0.2?
Response: satisfied

Prompt: Just wondering, is Z score of CC(CNC(=O)N(C)CCc1cccs1)N1CCOCC1C (centres undefined) below 0.2?
Response: satisfied

Prompt: Just wondering, is Z score of Cc1ccc(N2C[C@H](C(=O)O)[C@@H](C(C)C)C2)nn1 below 0.2?
Response: not satisfied

Prompt: Just wondering, is Z score of CNC(=O)c1ccc(NC2CC3CC3C2)nn1 (centres undefined) below 0.2?
Response: satisfied

Prompt: Just wondering, is Z score of CC(C)(C)c1cc(NC(=O)CCCc2ccccc2)n([C@H]2CCS(=O)(=O)C2)n1 below 0.2?
Response: not satisfied

Prompt: Just wondering, is Z score of c1ccc2c(-c3cc4c(c(O[C@H]5CCOC5)c3)OCCNC4)csc2c1 below 0.2?
Response: not satisfied

Prompt: Just wondering, is Z score of O=C(Nc1[nH]c(=O)ncc1F)c1coc(-c2ccccc2)n1 below 0.2?
Response: satisfied
